experimentalProtocol: qHTS for Inhibitors of the Functional Ribonucleoprotein Complex (vRNP) of Lymphocytic Choriomeningitis Arenaviruses (LCMV): Viability assay - alamar blue signal for LCMV Primary Screen (AID 1347085); further: nearly all actives have a fitted effect of over 80% in size
measurementConditions: alamar blue viability counter-screen, LCMV vRNP screen cells; series mostly up to 57.5 µM
Records with an inconclusive call do not appear. Calls of active or inactive are those of the source. The call rests on the fitted dose curve; tested in HEK293 reporter line.
Outcome codes: active, inactive

| compound | className |
| --- | --- |
| CS(=O)(=O)Nc1ccc([N+](=O)[O-])cc1Oc1ccccc1 | inactive |
| CC(C)N[C@@H]1CCn2c(=O)[nH]c3cccc(c32)[C@@H]1O | active |
| C1=CCOCc2cc(ccc2OCCN2CCCC2)Nc2nccc(n2)-c2cccc(c2)OCC1 | active |
| Cc1nc2cnc3ccc(C#Cc4cccnc4)cc3c2n1-c1ccc(C(C)(C)C#N)cc1 | active |
| CCCCCCCc1ccc(CCc2cccc(O)c2C(=O)O)cc1 | inactive |
| C[C@]12CC[C@H]3[C@@H](CCC4=CC(=O)CC[C@@]43C)[C@H]1CC[C@H]2OC(=O)CCC1CCCC1 | active |
| Cc1cccc(C)c1NC(=O)c1ccccc1C(=O)O | inactive |
| CC(=O)OCC(=O)[C@@]1(O)[C@H](C)C[C@H]2[C@@H]3C=C(C)C4=Cc5c(cnn5-c5ccccc5)C[C@]4(C)[C@@H]3[C@@H](O)C[C@@]21C | inactive |
| COC1=CC(C)=C[C@@H](C)[C@@H](O)[C@@H](C)CC(C)=CC=C[C@H](OC)[C@H]([C@@H](C)[C@@H](O)[C@H](C)[C@@]2(O)C[C@@H](O)[C@H](C)[C@@H](C(C)C)O2)OC1=O | active |
| Cc1ccc(Cl)c(O)c1 | inactive |
| CC(C)C[C@H](NC(=O)[C@@H](O)[C@H](N)Cc1ccccc1)C(=O)O | inactive |
| CC1(C)CCC(c2ccc(Cl)cc2)=C(CN2CCN(c3ccc(C(=O)NS(=O)(=O)c4ccc(N[C@H](CCN5CCOCC5)CSc5ccccc5)c(S(=O)(=O)C(F)(F)F)c4)cc3)CC2)C1 | inactive |
| CCc1c(C)[nH]c2c1C(=O)C(CN1CCOCC1)CC2 (stereo not given) | inactive |
| CN(C)[C@@H]1C(=O)C(C(N)=O)=C(O)[C@@]2(O)C(=O)C3=C(O)c4c(O)cccc4[C@@](C)(O)[C@H]3[C@H](O)[C@@H]12 | inactive |
| CCc1c(C(=O)C(N)=O)c2c(OCC(=O)O)cccc2n1Cc1ccccc1 | inactive |
| CCCCCCCCCC(CC)c1ccc(S(=O)(=O)O)cc1 (stereo not given) | inactive |
| Nc1nnnn1-c1ccccc1 | inactive |
| Cc1ccnc(NS(=O)(=O)c2ccc(NC(=O)Nc3ccc(S(=O)(=O)Nc4nccc(C)n4)cc3)cc2)n1 | active |
| C[C@@]12OC(=O)[C@]1([C@@H](O)[C@@H]1C=CCCC1)NC(=O)[C@H]2CCCl | active |
| CC(C)(C)NC[C@H](O)c1ccc(O)cc1Cl | inactive |
| CCOc1cc2ncc(C#N)c(Nc3ccc(F)c(Cl)c3)c2cc1NC(=O)C=CCN(C)C | active |
| CCCCN1CCC(CNC(=O)c2c3n(c4ccccc24)CCCO3)CC1 | active |
| COc1ccc(CCN(C)CCCOc2ccc(S(=O)(=O)c3[nH]c4ccccc4c3C(C)C)cc2)cc1OC | inactive |
| CC(C)[C@H](C(=O)Nc1ccc(C(=O)NO)cc1)c1ccccc1 | active |
| NCCCC(N)(C(=O)O)C(F)F (stereo not given) | inactive |
| C[C@]12CC[C@H](O)CC1=CC[C@H]1[C@H]3CCC(=O)[C@@]3(C)CC[C@@H]12 | inactive |
| COc1cccc2cc(-c3nc(C4CCC(C(=O)O)CC4)n4ncnc(N)c34)[nH]c12 (stereo not given) | active |
| CC(C)(C)NCC(O)c1ccc(O)c(CO)c1 (stereo not given) | inactive |
| CO[C@H]1C=CC=C(C)C(=O)NC2=CC(=O)C(NCCN(C)C)=C(C[C@@H](C)C[C@H](OC)[C@@H](O)[C@@H](C)C=C(C)[C@@H]1OC(N)=O)C2=O | active |
| O=S(=O)(CC1CS1)c1ccc(Oc2ccccc2)cc1 (stereo not given) | inactive |

----------
experimentalProtocol: Quantitative High-Throughput drug screen in 47 multiple myeloma cell lines against the NCATS MIPE library collection: SKMM1_PLB cell viability assay (AID 1919863); further: nearly all actives have a fitted effect of over 35% in size
measurementConditions: SKMM1 myeloma viability, CellTiter-Glo ATP, 48 h; active compounds read low
Inconclusive results are not listed.
// reported viability for each item listed

| compound | viability / % |
| --- | --- |
| C[C@@H]1[C@H](O)[C@@H](C)C=CC=CCCC=CC=CC=CC=C[C@H](O[C@H]2O[C@@H](C)[C@H](O)[C@@H](N)[C@@H]2O)CC2O[C@](O)(C[C@@H](O)[C@H](O)CC[C@@H](O)C[C@@H](O)C[C@@H](O)CC(=O)O[C@H]1C)C[C@H](O)[C@H]2C(=O)O | 120 |
| CC(=O)N(C)c1cccc(-c2ccnc3c(C(=O)c4cccs4)cnn23)c1 | 119 |
| c1cc2c(cc1[C@H]1OC[C@H]3[C@H]1CO[C@H]3c1ccc3c(c1)OCO3)OCO2 | 134 |
| COC1=C[C@@H]2[C@@H]3Cc4ccc(OC)c(O)c4[C@]2(CCN3C)CC1=O | 132 |
| CC(=CCCC1=CCC(C2=CC(=O)OC2O)OC1O)CCC1=C(C)CCCC1(C)C (stereo unspecified) | 104 |
| CC(=Cc1csc(C)n1)[C@@H]1C[C@H]2O[C@@H]2CCC[C@H](C)[C@@H](O)[C@@H](C)C(=O)C(C)(C)[C@@H](O)CC(=O)O1 | 81.4 |

----------
Tested on: UISO
experimentalProtocol: qHTS assay to identify novel small-molecules to repurpose for Merkel cell carcinoma treatment (AID 1296009); further: nearly all actives have a fitted effect of over 60% in size
measurementConditions: MCC and control cell lines, CellTiter-Glo viability, 72 h; series mostly up to 46 µM
Text: MCC is a rare and aggressive neuroendocrine skin cancer with limited treatment options. Approximately 80% of MCCs have the Merkel cell polyomavirus (MCPyV) DNA integrated into the host genome (virus-positive: VP-MCC) and viral oncogenes drive oncogenesis. The remaining MCCs are virus-negative (VN-MCC) and are caused by UV mutagenesis. […] Using cell viability as a readout (CellTiter-Glo assay) we found both overlapping and distinct drugs that can be repurposed for the treatment of VP-MCC and VN-MCC. […]
Records with an inconclusive call do not appear. The source made the active and inactive calls. The call rests on the fitted dose curve; in most records, active means well fitted inhibition curve with a large enough effect; inconclusive means small, poorly fitted or top-dose-only effect; inactive means flat fitted curve, though single readings scatter.
Possible outcomes: 1 (yes) for active, 0 (no) for inactive

| compound | className |
| --- | --- |
| C[C@](O)(COc1ccc(C#N)cc1)C(=O)Nc1ccc(C#N)c(C(F)(F)F)c1 | 0 (no) |
| CC(=O)N(C)c1cccc(-c2ccnc3c(C(=O)c4cccs4)cnn23)c1 | 0 (no) |
| CN(C)[C@@H]1C(=O)C(C(N)=O)=C(O)[C@@]2(O)C(=O)C3=C(O)c4c(O)cccc4[C@@](C)(O)[C@H]3[C@H](O)[C@@H]12 | 0 (no) |
| CCCN(CCC)c1c([N+](=O)[O-])cc(S(N)(=O)=O)cc1[N+](=O)[O-] | 1 (yes) |
| O=C(O)CNC(=O)c1c(O)c2ccccc2n(Cc2ccccc2)c1=O | 0 (no) |
| Cc1nc(-c2ccc(-c3ccc(C(=O)N4CCc5cc6c(cc54)C4(CCN(C)CC4)CO6)cc3)c(C)c2)no1 | 0 (no) |
| O=C(N[C@@H](COc1ccc2[nH]c(=O)[nH]c2c1)c1ccccc1)c1cccn(Cc2ccc(F)c(F)c2)c1=O | 0 (no) |
| CC(=O)Nc1ccc(OC[C@](C)(O)C(=O)Nc2ccc([N+](=O)[O-])c(C(F)(F)F)c2)cc1 | 0 (no) |
| COc1cc2cc(c1Cl)N(C)C(=O)C[C@H](OC(=O)C(C)C)[C@]1(C)O[C@H]1[C@H](C)[C@@H]1C[C@@](O)(NC(=O)O1)[C@H](OC)C=CC=C(C)C2 | 0 (no) |
| COc1cccc2c1[C@]13CCN(CC4CC4)[C@H](C2)[C@]1(OC)CCC(=O)C3 | 0 (no) |
| CN[C@@H](C)[C@H](O)c1ccccc1 | 0 (no) |
| O=C(O)COc1nc(Cl)c(Cl)cc1Cl | 0 (no) |

----------
experimentalProtocol: qHTS of pediatric cancer cell lines to identify multiple opportunities for drug repurposing: Primary screen for Rh30 cells (AID 1347107); further: nearly all actives have a fitted effect of over 75% in size
measurementConditions: Rh30 rhabdomyosarcoma viability, CellTiter-Glo luminescence, 48 h; series mostly up to 46 µM
Records with an inconclusive call do not appear. Calls of active or inactive are those of the source. The call rests on the fitted dose curve; in most records, active means well fitted cell-killing curve with a large enough effect; inconclusive means small, poorly fitted or top-dose-only effect; inactive means no such curve, though single readings can be large or run the other way.
Possible outcomes: y = active, n = inactive

| compound | className |
| --- | --- |
| COC(=O)[C@@H](N)CCCN=C(N)N[N+](=O)[O-] | n |
| COc1ccc(C(=O)c2c(C)n(CCN3CCOCC3)c3cc(I)ccc23)cc1 | n |
| CCOP(=O)(NC(C)C)Oc1ccc(SC)c(C)c1 (stereo not given) | n |
| O=C(O)COc1nc(Cl)c(Cl)cc1Cl | n |
| CC(C)[C@H]1C(=O)N[C@H](CO)Cc2c[nH]c3cccc(c23)N1C | n |
| O=C(Oc1ccc([N+](=O)[O-])cc1)N1CCC(C(O)(c2ccc3c(c2)OCO3)c2ccc3c(c2)OCO3)CC1 | n |
| C1CCC(NC2CCCCC2)CC1 | n |
| Cc1ccc(Cl)c(O)c1 | n |
| c1cc2c(cc1[C@H]1OC[C@H]3[C@H]1CO[C@H]3c1ccc3c(c1)OCO3)OCO2 | n |
| CC(=O)N(C)c1cccc(-c2ccnc3c(C(=O)c4cccs4)cnn23)c1 | n |
| CC[C@@H]1[C@@H](C)O[C@@](O)([C@@H](C)[C@H](O)[C@H](C)[C@H]2OC(=O)C=CC=C[C@@H](C)[C@@H]([C@@H](C)[C@@H](O)[C@H](C)[C@@]3(O)C[C@H](O[C@H]4C[C@H](O)[C@H](O)[C@H](C)O4)[C@H](CC)[C@@H](C)O3)OC(=O)C=CC=C[C@@H]2C)C[C@H]1O[C@H]1C[C@H](O)[C@H](O)[C@H](C)O1 | y |
| Fc1cc(Br)ccc1CBr | n |
| O=C(O)CCCOc1ccc(Cl)cc1Cl | n |
| CCCCC(CC)COC(=O)c1ccccc1C(=O)OCC(CC)CCCC (stereo not given) | n |
| CCN(CC)C(=O)c1ccc(C2=CC3(CCNCC3)Oc3cccc(O)c32)cc1 | n |
| CC(=O)Nc1ccc(OC[C@](C)(O)C(=O)Nc2ccc([N+](=O)[O-])c(C(F)(F)F)c2)cc1 | n |
| Nc1ccc(Cl)cc1 | n |
| CC(C)(C)NC[C@H](O)c1ccc(O)cc1Cl | n |
| CC1=C(O)C(=O)C=C2C1=CC=C1[C@@]2(C)CC[C@@]2(C)[C@@H]3C[C@](C)(C(=O)O)CC[C@]3(C)CC[C@]12C | y |
| O=[N+]([O-])c1cc([N+](=O)[O-])c2ccccc2c1 | n |
| O=[N+]([O-])c1c(Cl)c(Cl)cc(Cl)c1Cl | n |
| CC1=NN=C(c2ccc(N)cc2)c2cc3c(cc2C1)OCO3 | n |
| CCN1C[C@]2(OC(=O)c3ccccc3NC(C)=O)CC[C@H](OC)[C@@]34[C@H]5CC6[C@@H](OC)C[C@](O)(C(C[C@@H]23)[C@@H]14)[C@@]5(O)[C@@H]6OC | n |
| CCCC[N+]1(C)[C@H]2CC(OC(=O)[C@H](CO)c3ccccc3)C[C@H]1[C@H]1O[C@H]12 (stereo not given in full) | n |
| O=C(O)c1cc(Oc2ccc(C(F)(F)F)cc2Cl)ccc1[N+](=O)[O-] | n |
| O=C(O)C(Cl)Cl | n |
| CCc1c(C(=O)C(N)=O)c2c(OCC(=O)O)cccc2n1Cc1ccccc1 | n |
| C[C@]12CC[C@H]3[C@@H](CCC4=CC(=O)CC[C@@]43C)[C@H]1CC[C@H]2OC(=O)CCC1CCCC1 | n |
| O=c1[nH]c2ccc(Cl)cc2c(N[C@@H]2CN3CCC2CC3)c1-c1nc2ccccc2[nH]1 | n |
| COC(C)(C)CCCC(C)C/C=C/C(C)=C/C(=O)OC(C)C (stereo not given) | n |
| Clc1ccccc1C(c1ccccc1)(c1ccccc1)n1cccn1 | n |
| Nc1ccc([N+](=O)[O-])cc1 | n |
| CO[C@H]1CCC(O[C@H]2C[C@H]([C@]3(C)CC[C@]4(C[C@H](O)[C@@H](C)[C@@H]([C@@H](C)C=C(C)C(=O)[C@H](C)C[C@H](C)C(=O)O)O4)O3)O[C@]3(O[C@@H]([C@H]4O[C@@](O)(CO)[C@H](C)C[C@H]4C)C[C@H]3C)[C@H]2C)O[C@H]1C (stereo not given in full) | y |
| C[C@]12CCC(=O)C(O)=C1CC[C@@H]1[C@H]3CCC(=O)[C@@]3(C)CC[C@@H]12 | n |
| COc1ccc(N(C(=O)Oc2c(C)cccc2C)c2ccnc(Nc3ccc(N4CCN(C)CC4)cc3)n2)c(OC)c1 | n |
